assayed system: cathepsin S (Homo sapiens)
Construct: purchased R&D Systems 1183-CY-010
Sequence (P25774 115-331): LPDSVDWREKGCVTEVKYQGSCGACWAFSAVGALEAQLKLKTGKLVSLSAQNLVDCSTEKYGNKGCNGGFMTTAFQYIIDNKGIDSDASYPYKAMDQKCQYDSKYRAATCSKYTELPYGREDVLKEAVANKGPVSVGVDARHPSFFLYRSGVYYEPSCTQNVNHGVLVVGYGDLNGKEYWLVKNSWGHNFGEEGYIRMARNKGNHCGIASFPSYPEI
assay protocol: Specificity of inhibitors: cathepsin S (Z-Phe-Arg-AMC substrate)
Assay type: biochemical
assay setup: cathepsin S, pH 4.6
pIC50: −log10 of the molar value.
parameter measured: pIC50

{"molecule": "Cc1cccc(C)c1C(=O)OCC(=O)C(CCCCN)NC(=O)C(CCC(=O)O)NC(=O)OCc1ccccc1 (centres unmarked)", "pIC50": "< 4.80"}

// next entry
# input pIC50 for Cc1cccc(C)c1C(=O)OCC(=O)C(CCCCN)NC(=O)C(CCCNC(=N)N)NC(=O)OCc1ccccc1 (centres unmarked) ?
# output < 4.80
